Taken from ChEMBL document CHEMBL5356986.

System: Nannizzia gypsea
Assay: Antifungal activity against Microsporum gypseum assessed as fungal growth inhibition
Assay type: functional
Provide the recorded MIC for the entries that follow.
Answers are plain numbers, in µg/mL.

List MIC for every entry below, keeping the order given.
1. COc1cc(/C=C/C(=O)c2c[nH]c3ccccc23)cc(Br)c1OC
2. COc1ccc(/C=C/C(=O)c2c[nH]c3ccccc23)cc1
3. COc1ccc(/C=C/C(=O)c2cn(C)c3ccccc23)cc1

1. 1
2. 4
3. 1

Which measured MIC value corresponds to CCOc1c(Br)cc(/C=C/C(=O)c2c[nH]c3ccccc23)cc1OC ?
0.25

====

Test system: PC-3
Test: Cytotoxicity against human PC-3 cells assessed as reduction in cell viability
Assay type: functional, cell-based
measured endpoint: pIC50
Answers are plain numbers, as −log10 of the molar value.

Fill blank: measured pIC50 of the molecule COc1cc(C2CCCCc3c2ccc2c3ccn2C)cc(OC)c1OC (stereo unspecified) is ____.
7.33

====

Would you mind telling me the reported pIC50 of each entry?
System: MCF7
Assay: Cytotoxicity against human MCF7 cells assessed as reduction in cell viability after 48 hrs by SRB assay
Format: functional, cell-based
Details: MCF7, 48 h
One number for each entry, as −log10 of the molar value.

Example compounds with recorded pIC50:
C[C@@H]1CC[C@H]2[C@@H](C)C(OC(=O)c3cc4ccccc4[nH]3)O[C@@H]3O[C@@]4(C)CC[C@@H]1[C@]32OO4 (stereo partly drawn)
5.17
COc1ccc2[nH]c(C(=O)OC3O[C@@H]4O[C@@]5(C)CC[C@H]6[C@H](C)CC[C@@H]([C@H]3C)[C@@]46OO5)cc2c1 (stereo partly drawn)
4.84

# ---- query compound ----
Entry under review: C[C@@H]1CC[C@H]2[C@@H](C)C(OC(=O)c3cc4cc(Cl)ccc4[nH]3)O[C@@H]3O[C@@]4(C)CC[C@@H]1[C@]32OO4 (stereo partly drawn) . Reported pIC50?
5.28

====

Experiment: Cytotoxicity against mouse RAW264.7 cells assessed as reduction in cell viability incubated for 48 hrs by MTT assay
Type: toxicity, cell-based
measured endpoint: IC50 at 48 h (µM)
Answers are plain numbers, in µM.

// IC50 at 48 h lookup, key: C=C(C)[C@@H]1CC[C@]2(C)CC[C@]3(C)[C@H](CC[C@@H]4[C@@]5(C)Cc6c([nH]c7cc(I)ccc67)C(C)(C)[C@@H]5CC[C@]43C)[C@@H]12
22.6

====

Tested on: HeLa
Experiment: Antiproliferative activity against human HeLa cells assessed as reduction in cell growth measured after 48 hrs by MTT assay
Type: functional, cell-based
measured endpoint: IC50
Field: value (include unit after the number)

I'd like to know its IC50. The compound in question is O=C(c1cc2ccc(Cl)cc2n1Cc1cccc2ccccc12)N(CCO)[C@@H]1CC(=O)N2C[C@@H]3CCCN4CCC[C@@H]([C@H]34)[C@H]2C1
900 nM

====

Tested on: CAMA-1
Test: Antiproliferative activity against human CAMA-1 cells assessed as cell growth inhibition
Format: functional, cell-based
measured endpoint: IC50 (nM)
One number for each entry, in nM.

Test system CAMA-1; read-out IC50; what value for CC[C@@]1(O)C(=O)OCc2c1cc1n(c2=O)Cc2cc3ccccc3nc2-1 ?
70

====

Exercise: for every item that follows, state its recorded IC50.
Tested on: K562
Test: Antiproliferative activity against human K562 cells assessed as cell growth inhibition by MTT assay
Assay type: functional, cell-based
Answers are plain numbers, in nM.

// known answers, use as guide
COc1cc([C@@H]2c3cc4c(cc3[C@@H](O[C@@H]3O[C@@H]5CO[C@@H](C)O[C@H]5[C@H](O)[C@H]3O)[C@H]3COC(=O)[C@H]23)OCO4)cc(OC)c1O [ETOPOSIDE]
1720
COc1cc([C@@H]2c3cc4c(cc3[C@H](OC(=O)c3ccc5cc[nH]c5c3)[C@H]3COC(=O)[C@H]23)OCO4)cc(OC)c1OC
100

Dear colleague, I am looking for the recorded IC50 of the following compound: COc1cc([C@@H]2c3cc4c(cc3[C@H](NC(=O)C(=O)c3cn(Cc5ccccc5Cl)c5ccc(F)cc35)[C@H]3COC(=O)[C@H]23)OCO4)cc(OC)c1OC
400

====

Test system: LoVo
Assay: Cytotoxicity against human LoVo cells incubated for 72 hrs by MTT assay
Assay type: functional, cell-based
measured endpoint: IC50 (nM)
Give bare numbers, in nM.

Please state recorded IC50 (tested on LoVo) of COc1cc(C2CCCCc3c2ccc2c3ccn2C)cc(OC)c1OC (stereo unspecified)
49

====

Test system: HepG2
Experiment: Antiproliferative activity against human HepG2 cells assessed as inhibition of cell proliferation after 72 hrs by MTT assay
Assay type: functional, cell-based
Settings: HepG2, 72 h
measured endpoint: pIC50
Give bare numbers, as −log10 of the molar value.

Entry COc1cc(/C=N/NC(=O)c2cn(Cc3ccccc3)c3ccccc23)cc(OC)c1OC : reported pIC50 = ?
9.20

====

Test system: Toxoplasma gondii
Test: Antiparasitic activity against Toxoplasma gondii tachyzoites infected in human HeLa cells measured after 24 hrs by MTT assay
Assay type: functional, organism-based
measured endpoint: pIC50
Answers are plain numbers, as −log10 of the molar value.

Give the measured pIC50 of C[C@@H]1CC[C@H]2[C@@H](C)C(OC(=O)c3cc4cc(Cl)ccc4[nH]3)O[C@@H]3O[C@@]4(C)CC[C@@H]1[C@]32OO4 (stereo partly specified) .
4.07

====

I'd be grateful if you could share measured IC50 for these entries.
Test system: A549
Test: Antiproliferative activity against human A549 cells assessed as reduction in cell growth incubated for 72 hrs by MTT assay
Assay type: functional, cell-based
Conditions: A549, 72 h
One number for each entry, in µM.

COc1cc([C@@H]2c3cc4c(cc3[C@@H](O[C@@H]3O[C@@H]5CO[C@@H](C)O[C@H]5[C@H](O)[C@H]3O)[C@H]3COC(=O)[C@H]23)OCO4)cc(OC)c1O [ETOPOSIDE]
9.9

Shifting focus to the compound that follows.
Using the record for CCOc1c(Br)cc(/C=C/C(=O)c2cc3ccccc3n2C)cc1OC , report its IC50.
4.3

====

Target: Mu-type opioid receptor (Homo sapiens, UniProt P35372)
Sequence (P35372 whole entry): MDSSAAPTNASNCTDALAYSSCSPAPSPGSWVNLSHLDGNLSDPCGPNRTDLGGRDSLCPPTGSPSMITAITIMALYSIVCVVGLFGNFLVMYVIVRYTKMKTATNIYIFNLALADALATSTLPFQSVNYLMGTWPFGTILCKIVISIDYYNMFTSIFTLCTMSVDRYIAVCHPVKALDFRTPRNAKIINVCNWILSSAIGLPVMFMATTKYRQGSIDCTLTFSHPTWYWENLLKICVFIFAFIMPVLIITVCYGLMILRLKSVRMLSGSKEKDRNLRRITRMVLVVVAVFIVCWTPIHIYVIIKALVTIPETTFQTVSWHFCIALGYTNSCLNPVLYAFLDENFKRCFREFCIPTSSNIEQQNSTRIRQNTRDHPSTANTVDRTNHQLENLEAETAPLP
measured endpoint: pIC50
One number for each entry, as −log10 of the molar value.

Give its pIC50 value. Item: O=C(N[C@@H]1CC[C@@]2(O)[C@H]3Cc4ccc(O)c5c4[C@@]2(CCN3CC2CC2)[C@H]1O5)c1cc2ccccc2[nH]1
9.68

====

For each of the compounds below, state its pIC50.
Tested on: H4
Assay: Antiproliferative activity against human H4 cells assessed as cell growth inhibition
Format: functional, cell-based
One number for each entry, as −log10 of the molar value.

COC(=O)[C@]1(C)CC[C@]2(C)CC[C@]3(C)C4=CC(c5cn(C)c6cc(Cl)ccc56)=C5C(=CC(OC)C(OC)=C5C)[C@]4(C)CC[C@@]3(C)[C@@H]2C1 (some centres not stated)
5.69

Then there is this compound:
Item: CC1=C(O)C(=O)C=C2C1=CC=C1[C@@]2(C)CC[C@@]2(C)[C@@H]3C[C@](C)(C(=O)O)CC[C@]3(C)CC[C@]12C Test system: H4 Read-out: pIC50 Value: ?
5.68

====

Assignment: determine reported IC50 for the given compounds.
System: MCF7
Experiment: Antiproliferative activity against human MCF7 cells assessed as inhibition of cell growth by CCK8 assay
Format: functional, cell-based
One number for each entry, in µM.

C[C@]12CC[C@H](OC(=O)[C@H](N)c3c[nH]c4ccccc34)C[C@H]1CC[C@@H]1[C@@H]2[C@H](N)C(=O)[C@]2(C)[C@@H](c3ccc(=O)oc3)CC[C@]12O
11.6
C[C@]12CC[C@H]3[C@]4(C=C[C@]5(C[C@@H](O)CC[C@]35C)OO4)[C@@H]1CC/C2=N\N=C1/C(=O)Nc2ccc(Cl)cc21
9.05
C[C@]12CC[C@H]3[C@@H](CC=C4C[C@@H](O)CC[C@@H]43)[C@@H]1CC/C2=N\N=C\c1c[nH]c2ccccc12
1.06

Next, consider the following compound.
Recorded IC50 of CC(C)[C@@H](C)/C=C/[C@@H](C)[C@H]1CC[C@@H]2[C@]1(C)CC[C@H]1[C@]23C=C[C@]2(C[C@@H](O)CC[C@]12C)OO3 [ERGOSTEROL PEROXIDE] , please.
18

====

Tested on: A2780
Test: Antiproliferative activity against human A2780 cells assessed as inhibition of cell growth
Assay type: functional, cell-based
measured endpoint: IC50 (nM)
Answers are plain numbers, in nM.

Item COc1cc(C2CCCCc3c2ccc2c3ccn2C)cc(OC)c1OC (stereo unspecified) has what recorded IC50?
37

====

Assay: Inhibition of hyaluronidase (unknown origin)
Set-up: species or system Homo sapiens
measured endpoint: IC50
Could you give the number and then its unit, please?

Return reported IC50; argument: CC1(C)CC[C@]2(C(=O)O)CC[C@]3(C)C(=CC[C@@H]4[C@@]5(C)Cc6c([nH]c7c(F)cc(F)cc67)C(C)(C)[C@@H]5CC[C@]43C)[C@@H]2C1
9.97 µM
